- Tested on: U-2932
- assay.details: growth inhibition by drug alone (1 - RLU/untreated control) (fraction); higher = stronger inhibition
- condition.description: 10 nM; time (day): 4; 177Lu-lilotomab satetraxetan 0 ug/ml
Label 1 (yes) when growth inhibition by drug alone is at or above 0.05; otherwise label 0 (no).

compound: CC(C)[C@H](C(=O)Nc1ccc(C(=O)NO)cc1)c1ccccc1
study.system: U-2932
assigned.label: 0 (no)

compound: COc1nc(-c2ccc3c(c2)OCO3)n(-c2ccc(NC(=O)CSc3ccccc3)cc2)n1 [SecinH3]
study.system: U-2932
assigned.label: 0 (no)

compound: CNC(=O)c1cc(Oc2ccc(NC(=O)Nc3cc(C(C)(C)C)nn3-c3ccc4ncccc4c3)c(F)c2)ccn1 [DCC-2036 (Rebastinib)]
study.system: U-2932
assigned.label: 1 (yes)

compound: CC(=O)O[C@H]1C(=O)[C@@]2(C)[C@H]([C@H](OC(=O)c3ccccc3)[C@]3(O)C[C@H](OC(=O)[C@H](O)[C@@H](NC(=O)c4ccccc4)c4ccccc4)C(C)=C1C3(C)C)[C@]1(OC(C)=O)CO[C@@H]1C[C@@H]2O [Paclitaxel (Taxol)]
study.system: U-2932
assigned.label: 1 (yes)

compound: COc1cc(Nc2ncc(F)c(Nc3ccc4c(n3)NC(=O)C(C)(C)O4)n2)cc(OC)c1OC [R406(free base)]
study.system: U-2932
assigned.label: 0 (no)

compound: COc1cc2nc(N3CCCN(C)CC3)nc(NC3CCN(Cc4ccccc4)CC3)c2cc1OC
study.system: U-2932
assigned.label: 1 (yes)

compound: O=c1cc(N2CCOCC2)oc2c(-c3cccc4c3sc3ccccc34)cccc12
study.system: U-2932
assigned.label: 1 (yes)

compound: COC(=O)Nc1nc2cc(C(=O)c3cccs3)ccc2[nH]1 [Nocodazole]
study.system: U-2932
assigned.label: 1 (yes)

compound: COc1ncc(-c2ccc3nccc(-c4ccnnc4)c3c2)cc1NS(=O)(=O)c1ccc(F)cc1F
study.system: U-2932
assigned.label: 1 (yes)

compound: O=C(O)CC[C@H]1CC[C@@](c2cc(F)ccc2F)(S(=O)(=O)c2ccc(Cl)cc2)CC1
study.system: U-2932
assigned.label: 1 (yes)

* * *

- Test system: U-2932
- assay.details: growth inhibition by drug alone (1 - RLU/untreated control) (fraction); higher = stronger inhibition
- condition.description: 1000 nM; time (day): 4; 177Lu-lilotomab satetraxetan 0 ug/ml
Where a name gives a salt, the structure may show the parent alone.
YES means recorded growth inhibition by drug alone is 0.4 or above; NO means it is below 0.4.

molecule: C=CC(=O)Nc1cccc(Oc2nc(Nc3ccc(N4CCN(C)CC4)cc3OC)ncc2Cl)c1
assigned.label: NO

molecule: Nc1nccc(-c2ccc3noc(-c4ccc(Cl)cc4)c3c2)n1
assigned.label: NO

molecule: CN1CC[C@H](c2c(O)cc(O)c3c(=O)cc(-c4ccccc4Cl)oc23)[C@H](O)C1 [Flavopiridol hydrochloride]
assigned.label: YES

molecule: COCC[n+]1c2c(n(Cc3cnccn3)c1C)C(=O)c1ccccc1C2=O
assigned.label: YES

molecule: CCCCCOC(=O)Nc1nc(=O)n([C@@H]2O[C@H](C)[C@@H](O)[C@H]2O)cc1F
assigned.label: NO

molecule: Nc1ccc(C(=O)Nc2cccc(-c3nc(N4CCOCC4)c4oc5ncccc5c4n3)c2)cn1
assigned.label: NO

molecule: COc1ccc(-c2ccc3c(N4CCOC[C@@H]4C)nc(N4CCOC[C@@H]4C)nc3n2)cc1CO
assigned.label: YES

molecule: CN(NC(=O)CC(=O)NN(C)C(=S)c1ccccc1)C(=S)c1ccccc1
assigned.label: YES

molecule: Cc1ccc(C(=O)Nc2ccc(CN3CCN(C)CC3)c(C(F)(F)F)c2)cc1C#Cc1cnc2cccnn12
assigned.label: YES

molecule: CC[C@H](Nc1ncnc2[nH]cnc12)c1nc2cccc(F)c2c(=O)n1-c1ccccc1
assigned.label: NO

molecule: C[C@]1(c2nc3c(C(N)=O)cccc3[nH]2)CCCN1
assigned.label: NO

molecule: CC/C(=C(\c1ccccc1)c1ccc(OCCN(C)C)cc1)c1ccccc1 [Tamoxifen Citrate (Nolvadex)]
assigned.label: NO

molecule: COC(=O)Nc1ccc(-c2nc(N3CCOCC3)c3cnn(C4CCN(C(=O)OC)CC4)c3n2)cc1
assigned.label: NO

molecule: Cc1cnc(NC(=O)Nc2cc(Br)c(C)cc2OC[C@@H]2CNCCO2)cn1
assigned.label: NO

molecule: CCc1cncnc1N1CCN(Cc2nc3ccc(C(F)(F)F)cc3[nH]2)CC1
assigned.label: NO

* * *

Items are presented alongside their recorded growth inhibition by drug alone.
- Tested on: RIVA
- assay.details: growth inhibition by drug alone (1 - RLU/untreated control) (fraction); higher = stronger inhibition
- condition.description: 100 nM; time (day): 4; 177Lu-lilotomab satetraxetan 0 ug/ml
Counter-ions that a name gives are not always drawn.

molecule: COc1ccc(S(=O)(=O)Nc2cccnc2Nc2ccc(O)cc2)cc1
growth inhibition by drug alone: -0.364
--
molecule: Cc1cn(-c2cc(NC(=O)c3ccc(C)c(Nc4nccc(-c5cccnc5)n4)c3)cc(C(F)(F)F)c2)cn1 [Nilotinib (AMN-107)]
growth inhibition by drug alone: -0.118
--
molecule: COc1ccc(/C=C\c2cc(OC)c(OC)c(OC)c2)cc1O [Combretastatin A4]
growth inhibition by drug alone: 0.936
--
molecule: O=C(/C=C/C#Cc1cccc(NS(=O)(=O)c2ccccc2)c1)NO [Oxamflatin]
growth inhibition by drug alone: 0.482
--
molecule: OC[C@H]1O[C@@H](n2cnc3c2N=CNC[C@H]3O)C[C@@H]1O [Pentostatin]
growth inhibition by drug alone: -0.321
--
molecule: O=c1[nH]cc(F)c(=O)[nH]1 [Adrucil (Fluorouracil)]
growth inhibition by drug alone: -0.481
--
molecule: CC(NC(=O)c1ccccc1/N=C/c1c(O)ccc2ccccc12)c1ccccc1 (stereo not given) [Sirtinol]
growth inhibition by drug alone: -0.00311
--
molecule: C[C@@H](O[C@H]1OCCN(Cc2n[nH]c(=O)[nH]2)[C@H]1c1ccc(F)cc1)c1cc(C(F)(F)F)cc(C(F)(F)F)c1 [Aprepitant (MK-0869)]
growth inhibition by drug alone: -0.342
--
molecule: CO[C@@H](C(=O)N1Cc2[nH]nc(NC(=O)c3ccc(N4CCN(C)CC4)cc3)c2C1)c1ccccc1
growth inhibition by drug alone: 0.0638
--
molecule: CC(=O)O[C@H]1C(=O)[C@@]2(C)[C@H]([C@H](OC(=O)c3ccccc3)[C@]3(O)C[C@H](OC(=O)[C@H](O)[C@@H](NC(=O)c4ccccc4)c4ccccc4)C(C)=C1C3(C)C)[C@]1(OC(C)=O)CO[C@@H]1C[C@@H]2O [Paclitaxel (Taxol)]
growth inhibition by drug alone: 0.962
--
molecule: O=C(CCCCCCC(=O)Nc1cccnc1)NO [Pyroxamide]
growth inhibition by drug alone: -0.305
--
molecule: COc1cc2ncnc(Nc3ccc(Oc4ccccc4)cc3)c2cc1OC
growth inhibition by drug alone: 0.00379
--
molecule: OCCn1cc(-c2cnc3nnn(Cc4ccc5ncccc5c4)c3n2)cn1
growth inhibition by drug alone: -0.278
--
molecule: COc1c(C)c2c(c(O)c1C/C=C(\C)CCC(=O)O)C(=O)OC2 [Mycophenolic (Mycophenolate)]
growth inhibition by drug alone: 0.362
--
molecule: CC(=O)[C@]1(O)Cc2c(O)c3c(c(O)c2[C@@H](O[C@H]2C[C@H](N)[C@H](O)[C@H](C)O2)C1)C(=O)c1ccccc1C3=O [Idarubicin HCl]
growth inhibition by drug alone: 0.825

* * *

- Test system: RIVA
- assay.details: growth inhibition by drug plus 177Lu-lilotomab satetraxetan (1 - RLU/untreated control) (fraction); higher = stronger inhibition
- condition.description: 100 nM; time (day): 5; 177Lu-lilotomab satetraxetan 0.5 ug/ml
Record True whenever growth inhibition by drug plus 177Lu-lilotomab satetraxetan is at 0.5 or higher; record False when lower.

compound: CN(CCOc1ccc(CC2SC(=O)NC2=O)cc1)c1ccccn1 (stereo not given)
study.system: RIVA
assigned.label: True

compound: COc1ncc(-c2ccc3nccc(-c4ccnnc4)c3c2)cc1NS(=O)(=O)c1ccc(F)cc1F
study.system: RIVA
assigned.label: True

compound: CNC(=O)[C@@H](NC(=O)[C@H](CC(C)C)[C@H](O)C(=O)NO)C(C)(C)C
study.system: RIVA
assigned.label: False

* * *

- Tested on: RIVA
- assay.details: growth inhibition by drug plus 177Lu-lilotomab satetraxetan (1 - RLU/untreated control) (fraction); higher = stronger inhibition
- condition.description: 100 nM; time (day): 5; 177Lu-lilotomab satetraxetan 0.5 ug/ml
reported.endpoint: growth inhibition by drug plus 177Lu-lilotomab satetraxetan

molecule: COc1cc(Nc2ncc(F)c(Nc3ccc4c(n3)NC(=O)C(C)(C)O4)n2)cc(OC)c1OC [R406(free base)]
study.system: RIVA
value.observed: 0.581
--
molecule: Nc1ncn([C@@H]2O[C@H](CO)[C@@H](O)[C@H]2O)c(=O)n1 [Azacitidine (Vidaza)]
study.system: RIVA
value.observed: 0.362
--
molecule: O=C(NOC[C@H](O)CO)c1ccc(F)c(F)c1Nc1ccc(I)cc1F
study.system: RIVA
value.observed: 0.512
--
molecule: Cc1cnc(-c2cnc(NCCNc3ccc(C#N)cn3)nc2-c2ccc(Cl)cc2Cl)[nH]1
study.system: RIVA
value.observed: 0.536
--
molecule: CNC(=O)c1cc(COc2nnc(Nc3ccc(Cl)cc3)c3ccoc23)ccn1 [Telatinib (BAY 57-9352)]
study.system: RIVA
value.observed: 0.413
--
molecule: C[C@]12CC[C@@H]3c4ccc(O)cc4CC[C@H]3[C@@H]1CC[C@@H]2O [Estradiol]
study.system: RIVA
value.observed: 0.607
